test method notes: small-molecule microarray binders of probe aLefty2, primary screen, biochemical, biotinylated probe, 635/667 nm fluorescence (AID 1094);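 note: score merges spot fluorescence near 667 nm with spot signal-to-noise ratio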
run parameters: higher = more signal
Listing of recorded composite z-score by entry.
I'd appreciate a reply containing only the number, no unit.

As a guide, the following entries are already answered.
compound	composite z-score
CC(CCN1CCCCc2nc(C)c(C)cc21)=NO[C@@H](C)c1cc(-c2c(C)cc(C)cc2C)no1	-0.126
CCOC(=O)CCN1C(=O)[C@H]2[C@H]3[C@H](O)[C@H](O)CC(=NNC(=O)OCc4ccc(OC)cc4)[C@H]3CC[C@H]2C1=O	0.0108

Note: attention shifts to another entry.
Sample CC(=O)OC[C@H]1O[C@H](CC=NOC(C)CN2CCCCc3nc(C)c(C)cc32)C=C[C@@H]1OC(C)=O (stereo partly drawn) — what was its composite z-score?
0.176

* * *

test method notes: A549 cell viability effects, profiling panel, calcein-AM fluorescence, 48 h, basal (AID 1162); note: test concentration not given here
run parameters: higher = more signal
reported endpoint: z-score
I'd appreciate a reply containing only the number, no unit.

As a guide, the following entries are already answered.
compound	z-score
CC(C)[C@@H](OCc1ccccc1)[C@H](C)CON=C1[C@H]2CCn3c(=O)n(-c4ccccc4)c(=O)n3[C@H]2[C@H](O)[C@@H]2O[C@H]12	-0.27
O=C1[C@H]2[C@H]3[C@H](O)[C@H](O)CC(=NOCc4ccccc4)[C@@H]3CC[C@H]2C(=O)N1c1cccc(Oc2ccccc2)c1	0.794
CCOC(=O)[C@H](Cc1ccccc1)NC(=O)CCC1CC(OC(=O)NCCc2ccc(F)cc2)CC2(CCCC(COC(=O)NCc3cccc(C(F)(F)F)c3)O2)O1 (some centres undefined)	-0.754
CCCCOC(OCCCC)C(O)CSc1ccc2ccccc2c1 (centres undefined)	-1.28
CC(=O)OC[C@H]1O[C@@H](ON=C(C)CCC(=O)OC[C@H]2O[C@H](C#Cc3ccccc3)C=C[C@@H]2Oc2ccc(C)cc2)[C@H](OC(C)=O)[C@@H](OC(C)=O)[C@@H]1OC(C)=O	0.16
COc1ccc(COC(=O)NN=C2C[C@@H](O)[C@@H](O)[C@@H]3[C@@H]4C(=O)N([C@@H](C)c5ccccc5)C(=O)[C@@H]4CC[C@@H]23)cc1	-0.173
COC(=O)[C@@H]1CC[C@H](C)[C@@H](c2ccc(C)cc2)N1C(=O)c1ccc(C=NO[C@@H](C)c2cc(-c3c(C)cc(C)cc3C)no2)cc1	0.203
CO[C@@H](C1CCCCC1)[C@@H](C)[C@H](OCc1cccc(Br)c1)[C@@H](C)CO	-2.34
COCCNC(=O)OCC1CCCC2(CC(OC(=O)NCc3cccc4ccccc34)CC(CCC(=O)N[C@@H](C)C(=O)OC)O2)O1 (some centres undefined)	1.89
O=C1CCCC=C1C(O)C1CCCCC1 (centres undefined)	-0.586

Note: attention shifts to another entry.
Sample CC(=O)OC[C@H]1O[C@@H](ON=C2[C@H]3CCn4c(=O)n(-c5ccccc5)c(=O)n4[C@H]3[C@H](O)[C@@H]3O[C@H]23)[C@H](OC(C)=O)[C@@H](OC(C)=O)[C@@H]1OC(C)=O — what was its z-score?
-0.0311

* * *

Test system: Wnt5a (protein binding on small-molecule microarray)
test method notes: Wnt5a binders on small-molecule microarray, primary screen, biophysical, 635/667 nm fluorescence (AID 1142);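 note: fluorescence read at 667 nm with signal to noise per printed feature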
run parameters: 635 nm fluorescence, higher = more signal
Listing of recorded composite z-score by entry.
I'd appreciate a reply containing only the number, no unit.

compound	value
CCOC(=O)CCN1C(=O)[C@H]2[C@@H]3C(=CC[C@H]2C1=O)C(=O)[C@H]1O[C@H]1[C@H]3O	-0.544
CO[C@H]1COC(=O)CCC[C@H](C)[C@H](OC)COC(=O)CC=C[C@@H]1C	-0.225
COC(=O)[C@H](CCSC)NC(=O)CC=C[C@@H](C)CO	0.848
CCOC(=O)[C@H](CC(C)C)NC(=O)CCC1CC(OC(=O)NCc2ccc3c(c2)OCO3)CC2(CCCC(COC(=O)NCCOc3ccccc3)O2)O1 (stereo not given in full)	0.278

Note: attention shifts to another entry.
Sample CC(=O)OC[C@H]1O[C@H](CC=NOC(C)CN2CCCCc3nc(C)c(C)cc32)C=C[C@@H]1OC(C)=O (stereo not given in full) — what was its composite z-score?
0.696
